# experimental.system: Dopamine beta hydroxylase (Homo sapiens, UniProt P09172)
# Construct: 125 μl of plasma; tissue Instituto Português do Sangue Transplantação; host or cells: human plasma from healthy donors
# Sequence (P09172 40-617 limits assumed): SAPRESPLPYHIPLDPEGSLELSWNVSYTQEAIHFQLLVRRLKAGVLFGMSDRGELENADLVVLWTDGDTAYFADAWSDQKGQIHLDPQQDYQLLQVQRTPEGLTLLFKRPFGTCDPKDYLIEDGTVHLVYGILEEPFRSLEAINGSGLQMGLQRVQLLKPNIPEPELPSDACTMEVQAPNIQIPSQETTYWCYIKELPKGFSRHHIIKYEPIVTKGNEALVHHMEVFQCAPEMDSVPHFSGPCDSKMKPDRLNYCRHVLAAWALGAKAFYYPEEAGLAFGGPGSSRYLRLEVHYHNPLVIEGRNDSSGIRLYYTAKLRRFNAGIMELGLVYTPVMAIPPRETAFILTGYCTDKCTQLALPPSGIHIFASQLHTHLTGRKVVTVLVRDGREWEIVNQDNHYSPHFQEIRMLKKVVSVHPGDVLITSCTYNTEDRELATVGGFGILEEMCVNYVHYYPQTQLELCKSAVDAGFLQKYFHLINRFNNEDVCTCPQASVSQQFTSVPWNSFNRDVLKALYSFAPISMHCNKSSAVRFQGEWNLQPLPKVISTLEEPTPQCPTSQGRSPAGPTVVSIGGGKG
# test.details: Dopamine beta hydroxylase activity in human plasma
# Format: biochemical
# condition.description: inhibitor 0.01 μM
# Experimental: Furthermore, the ability of a compound to inhibit DβH activity may be assessed in human plasma using the following assay. […]. Dopamine beta hydroxylase activity in human plasma was measured by the method of Nagatsu and Udenfriend (Nagatsu, T. and Udenfriend, S. “Photometric assay of dopamine-μ-hydroxylase activity in human blood.” Clin. Chem. 18(9) 980-983, 1972) with minor modifications. […] Absorbance was linear with octopamine concentration from 0.5 to 20 μg/ml. […]
Below, each entry is listed alongside its reported Plasma (0.01 μM), activity in % of control.

Sample answers from the record:
compound | result
Cn1c(CC(=O)N[C@H]2CC[C@H](O)CC2)c2n(c1=S)C[C@@]1(c3cc(Cl)ccc3F)C[C@@H]21 [Example 355] | 56.4 % of control
Cn1c(CC(=O)N[C@@H]2CCNC2=O)c2n(c1=S)C[C@H](c1c(F)ccc(Br)c1F)C2 [Example 342] | 66.6 % of control
Cn1c(CC(=O)N2CCOCC2)c2n(c1=S)C[C@H](c1c(F)ccc(Br)c1F)C2 [Example 233] | 83.8 % of control
Cn1c(CC(=O)NC2CCOCC2)c2n(c1=S)C[C@@]1(c3cc(Cl)ccc3F)C[C@@H]21 [Example 313] | 37.6 % of control
O=C(Cc1[nH]c(=S)n2c1C[C@H](c1c(F)ccc(F)c1F)C2)N[C@H]1CCOC1 [Example 370] | 88.5 % of control

Enquiry: Quick one: Plasma (0.01 μM), activity in % of control for O=C(CCc1[nH]c(=S)n2c1C[C@H](c1c(F)c(F)cc(F)c1F)C2)N1CCOCC1 [Example 205] ?
Return: 76.9 % of control

Enquiry: What value of Plasma (0.01 μM), activity in % of control has been recorded for this entry: Cn1c(CC(=O)N[C@@H]2CCOC2)c2n(c1=S)C[C@H](c1c(F)ccc(Br)c1F)C2 [Example 232]
Return: 48.8 % of control

Enquiry: Which Plasma (0.01 μM), activity in % of control is listed for CN(CCO)C(=O)Cc1[nH]c(=S)n2c1C[C@H](c1c(F)ccc(Br)c1F)C2 [Example 131] ?
Return: 89.8 % of control

Enquiry: Could you tell me which Plasma (0.01 μM), activity in % of control is on file for Cn1c(CC(=O)N[C@@H]2CCOC2)c2n(c1=S)C[C@H](c1c(F)ccc(Cl)c1F)C2 [Example 250] ?
Return: 46.1 % of control

Enquiry: Look up Plasma (0.01 μM), activity in % of control for this compound: Cn1c(C2(C(=O)NCCS(C)(=O)=O)CC2)c2n(c1=S)C[C@H](c1c(F)ccc(Br)c1F)C2 [Example 238]
Return: 93.4 % of control

Enquiry: So what's the measured Plasma (0.01 μM), activity in % of control for this one? CN(C(=O)Cc1c2n(c(=S)n1C)C[C@H](c1c(F)ccc(Cl)c1F)C2)C1CCOC1 (stereo partly shown) [Example 383]
Return: 65.6 % of control

Enquiry: Recorded Plasma (0.01 μM), activity in % of control of Cn1c(CC(=O)NC2CCOCC2)c2n(c1=S)C[C@@H](c1c(F)c(F)cc(F)c1F)C2 [Example 297] , please.
Return: 78.7 % of control

Enquiry: Reported Plasma (0.01 μM), activity in % of control, compound CN(CCO)CCc1[nH]c(=S)n2c1C[C@H](c1c(F)ccc(Br)c1F)C2 [Example 183] : ____
Return: 92.2 % of control

Enquiry: What does the record list as Plasma (0.01 μM), activity in % of control for O=C(Cc1[nH]c(=S)n2c1C[C@H](c1c(F)ccc(Br)c1F)C2)N[C@H]1CCC[C@@H]1O [Example 161] ?
Return: 85.0 % of control

Enquiry: Plasma (0.01 μM), activity in % of control for O=C(Cc1[nH]c(=S)n2c1[C@@H]1C[C@]1(c1cc(Br)ccc1F)C2)Nc1ccccn1 [Example 170] ?
Return: 64.9 % of control

Enquiry: What Plasma (0.01 μM), activity in % of control value was documented for this compound, Cn1c(CC(=O)NC[C@@H]2CCCO2)c2n(c1=S)C[C@H](c1c(F)ccc(Cl)c1F)C2 [Example 336] ?
Return: 50.0 % of control
